The values you see were collected from PubChem BioAssay (NCATS).

# Assay Target: Retinaldehyde dehydrogenase 3 (Homo sapiens) (UniProt P47895)
# Method Summary: qHTS for Inhibitors of the Aldehyde Dehydrogenase Family (ALDH1A3) Primary screen (AID 2061315)
# Particulars: ALDH inhibition qHTS; series mostly up to 56 µM
Inconclusive results are not listed. Activity calls are given as the source filed them. Calls come from the whole dose curve; as a rule, active = well fitted inhibition curve with a large enough effect; inconclusive = small, poorly fitted or top-dose-only effect; inactive = no such curve, though single readings can be large or run the other way.
Parameter: activity change, negative = inhibition

Record excerpt, results attached:
- O=S(=O)(c1ccc2c(c1)OCCO2)N1CCN(S(=O)(=O)c2cccc3cccnc23)CC1: inactive
- COc1cccc(NC(=O)c2cc(-c3ccc(C)c(C)c3)nc3ccccc23)c1: inactive
- c1nc(NCCc2cnc[nH]2)c2ccc(-c3ccc4c(c3)OCO4)cc2n1: inactive
- CC(=O)c1ccc(O[C@@H]2O[C@H](CO)[C@@H](O)[C@H](O)[C@H]2O)cc1: inactive
- CCNC(=O)c1ccc(-c2ccc3ncnc(NCC4CCCO4)c3c2)o1 (stereo unspecified): inactive
- CCCn1c(C)nc2c(NCCCCN3CCCC3)nc(C)nc21: inactive
- Cn1nnnc1Sc1ncnc2scc(-c3ccc[nH]3)c12: inactive
- O=C1CCc2cc(S(=O)(=O)Nc3ccncc3)ccc2N1: inactive

Please give the measured activity change, negative = inhibition for this compound: Cc1cc(NC(=O)Nc2nnc(-c3ccncc3)s2)ccc1Cl
inactive

// same read-out, input: Cc1cn(-c2cc(F)cc(NC(=O)c3ccc(C)c(Nc4nccc(-c5cccnc5)n4)c3)c2)cn1
inactive

Record: O=C(Cc1ccc(Cl)c(Cl)c1)Nc1ccc(S(=O)(=O)Nc2cncnc2)cc1
inactive

Further, for Cc1cc(C)nc(NC(=S)N2CCN(c3ccc(C(F)(F)F)cc3[N+](=O)[O-])CC2)c1 ?
inactive

# iterate: CCCn1c(C)nc2c(NCCCCN(CC)CC)nc(C)nc21
inactive

Same question for CC(C)CC(OC(=O)CNC(=O)c1ccccc1)C(=O)Nc1cc(C(F)(F)F)ccc1Cl (stereo unspecified) please.
inactive

Also COc1cc(O)c([C@H](CC(=O)N2CC(C)CC(C)C2)c2ccc3c(c2)OCO3)c(OC)c1 (stereo partly specified) ?
inactive

Let us now turn to CC(C)(C)c1cc(O)c(CN)c(C(C)(C)C)c1
inactive

Another: CCOc1ccc(CCNC(=O)c2ccc3[nH]ccc3c2)cc1OCC
inactive

Check O=C(Nc1ccc(-c2nc3ccccc3[nH]2)cc1)c1ccc2cc[nH]c2c1 too.
inactive

// query: COc1cc(O)c(C(CC(=O)N2CCC(C)CC2)c2ccc(OC)c(OC)c2)c(OC)c1 (stereo unspecified)
inactive

Okay, and COc1ccccc1C1=Nn2c(nnc2-c2cccc(OC)c2OC)SC1 ?
inactive

How about this compound: Cc1ccc(OCCn2c(CCNC(=O)C3CCNCC3)nc3ccccc32)cc1
inactive
